Experiment: differential killing of epithelial or mesenchymal cells, primary screen, imaging, PC-3E GFP, TEM4-18 mCherry, co-culture (AID 1345086);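 note: cells exposed to compound for 72 h before imaging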
Details: imaging cell counts, measured here: epithelial PC-3E GFP cell survival, at 1 µM
Measured normalised cell number, listed per entry for reference.

# Compound, normalised cell number
measured = [
    ("CC1CN(c2c(F)c(N)c3c(=O)c(C(=O)O)cn(C4CC4)c3c2F)C[C@H](C)N1 (stereo partly specified)", 1.03),
    ("CC1/C=C/C=C/C=C/C=C/C=C/C=C/C=C/C(O[C@@H]2O[C@H](C)[C@H](O)[C@@H](O)[C@@H]2N)CC(O)C(C(=O)O)C(O)CC(=O)CC(O)CC(O)CC(O)CC(=O)CCCC(=O)CC(=O)OC1C(C)CC(C)C(O)CC(=O)c1ccc(N)cc1 (stereo partly specified)", 1.09),
    ("C[C@H]1CC2C([C@@H](O)C[C@@]3(C)C2CC[C@]3(O)C(=O)COC(=O)CCC(=O)O)[C@@]2(C)C=CC(=O)C=C12 (stereo partly specified)", 1.3),
    ("CC(C)CC1C(=O)N2CCC[C@H]2C2(O)O[C@](NC(=O)C3C=C4c5cccc6[nH]c(Br)c(c56)C[C@H]4N(C)C3)(C(C)C)C(=O)N12 (stereo partly specified)", 0.91),
    ("C/C=C/CC(C)C(O)C1C(=O)NC(CC)C(=O)N(C)CC(=O)N(C)C(CC(C)C)C(=O)NC(C(C)C)C(=O)N(C)C(CC(C)C)C(=O)NC(C)C(=O)NC(C)C(=O)N(C)C(CC(C)C)C(=O)N(C)C(CC(C)C)C(=O)N(C)C(C(C)C)C(=O)N1C (stereo unspecified)", 0.27),
    ("C=CCOC(Cn1ccnc1)c1ccc(Cl)cc1Cl (stereo unspecified)", 1.28),
]
